In this section we review reported IC50 values for a set of compounds.
system tested: GST-tagged recombinant human TYRO3 kinase domain (Homo sapiens (Human), UniProt Q06418)
Sequence (Q06418 518-790): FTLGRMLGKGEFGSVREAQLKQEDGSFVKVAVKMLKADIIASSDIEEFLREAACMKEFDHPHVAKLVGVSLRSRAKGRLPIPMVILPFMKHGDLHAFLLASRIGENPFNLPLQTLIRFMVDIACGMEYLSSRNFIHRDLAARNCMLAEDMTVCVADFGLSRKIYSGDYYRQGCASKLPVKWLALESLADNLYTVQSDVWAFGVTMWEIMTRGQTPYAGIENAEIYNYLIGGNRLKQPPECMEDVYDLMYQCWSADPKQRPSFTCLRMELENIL
assay setup: read-out: TYRO3 enzyme IC50
Provide the reading as a plain figure in nM.

[[record]]
compound = "O=C(Nc1ccc(Oc2ccnc3[nH]nc(NCC4CCS(=O)(=O)C4)c23)c(F)c1)c1ccnn(-c2ccc(F)cc2)c1=O (stereo not drawn) [Example 24]"
readout_number = 120

[[record]]
compound = "COCCC(C)(C)Nc1n[nH]c2nccc(Oc3ccc(NC(=O)c4ccnn(-c5ccc(F)cc5)c4=O)cc3F)c12 [Example 22]"
readout_number = 318

[[record]]
compound = "COC[C@@H]1CCC[C@@H]1Nc1n[nH]c2nccc(Oc3ccc(NC(=O)c4ccnn(-c5ccc(F)cc5)c4=O)cc3F)c12 (relative stereo) [Example 28]"
readout_number = 375


Reported IC50 for Cc1cc(C(=O)Nc2ccc(Oc3ccnc4[nH]nc(NC(C)CC(F)F)c34)cn2)c(=O)n(-c2ccc(F)cc2)c1 (stereo not drawn) [Example 168] : what is it?
248

Reported IC50 for CC(CC(F)F)Nc1n[nH]c2nccc(Oc3ccc(NC(=O)c4cn(C)cc(-c5ccc(F)cc5)c4=O)nc3)c12 (stereo not drawn) [Example 167] : what is it?
224

The reported numbers originate from patent US11104676B2.
